assay remarks: Metabolic stability in rat plasma
Assay type: in vitro ADME
assay setup: rat, plasma, pooled rat plasma, 37°C, peptide 100 μM; read-out: Stability (t1/2) Plasma
Where a SMILES comes first, the peptide text is derived from it. [ ]: non-standard residue; d: D form. Phe(4-NO2) = N[C@@H](Cc1ccc([N+](=O)[O-])cc1)C(=O)O; Phe(4-Cl) = N[C@@H](Cc1ccc(Cl)cc1)C(=O)O; NMeR = CN[C@@H](CCCNC(=N)N)C(=O)O; Aoc = NCCCCCCCC(=O)O; Ahx = NCCCCCC(=O)O; Sar = CNCC(=O)O
value type: half-life

Example cases with answers are listed next.
| compound | value type | readout value |
| --- | --- | --- |
| CC(C)C[C@H](NC(=O)[C@H](Cc1ccc(Cl)cc1)NC(=O)CN(C)C(=O)[C@@H](N)Cc1ccc(O)cc1)C(=O)N[C@@H](CCCCN)C(=O)N[C@H](CCCNC(=N)N)C(N)=O [KA306] (H-Y[Sar][Phe(4-Cl)]LK[dR]-NH2) | half-life | 2.67 h |
| CC(C)C[C@H](NC(=O)[C@H](Cc1ccc(Cl)cc1)NC(=O)CN(C)C(=O)[C@@H](N)Cc1ccc(O)cc1)C(=O)N[C@@H](CCCNC(=N)N)C(=O)N(C)[C@@H](CCCNC(=N)N)C(=O)NCCCCCCCC(N)=O [KA312] (H-Y[Sar][Phe(4-Cl)]LR[NMeR][Aoc]-NH2) | half-life | 0.26 h |
| CC(C)C[C@H](NC(=O)[C@H](Cc1ccc([N+](=O)[O-])cc1)NC(=O)CN(C)C(=O)[C@@H](N)Cc1ccc(O)cc1)C(=O)N[C@@H](CCCNC(=N)N)C(=O)N[C@H](CCCNC(=N)N)C(N)=O [KA204] (H-Y[Sar][Phe(4-NO2)]LR[dR]-NH2) | half-life | > 1 h |

Alright, here's another compound for you.
Input line: If you can, please state the reported half-life value of CC(C)C[C@H](NC(=O)[C@H](Cc1ccc(Cl)cc1)NC(=O)CN(C)C(=O)[C@@H](N)Cc1ccc(O)cc1)C(=O)N[C@@H](CCCNC(=N)N)C(=O)N[C@H](CCCNC(=N)N)C(=O)NCCCCCC(N)=O [KA304] (H-Y[Sar][Phe(4-Cl)]LR[dR][Ahx]-NH2) .
Output line: 1.32 h
